Data credit: the supplement of paper PMC11451515

Give measured cell viability for each item. Keep answers brief.
# System: SEM cells
# Assay summary: cell viability relative to DMSO control; higher = less cytotoxic
# Experimental parameters: HPLM + 10% dialyzed FBS; 48 h; 46.1 µM
Give bare numbers, in %.

O=C(Nc1cccnc1)N1CCC(Cc2cccc(Oc3ccc(C(F)(F)F)cn3)c2)CC1 ... 9
C[C@]12CC[C@H]3[C@@H](CC[C@@]45O[C@@H]4C(O)=C(C#N)C[C@]35C)[C@@H]1CC[C@@H]2O ... 12.4
O=C(NOCC1CC1)c1ccc(F)c(F)c1Nc1ccc(I)cc1Cl ... 77.1
N[C@@H]1C[C@H]1c1ccccc1 ... 109
CC1(C)[C@@H](O)CC[C@@]2(C)[C@H]1CC[C@]3(C)[C@@H]2C(=O)\C=C/4[C@@H]5C[C@](C)(CC[C@]5(C)CC[C@@]34C)C(O)=O ... 86.9

Here are 3 compounds. What values of cell viability were reported for them?
1. C[C@@H](Cc1cc2c(c(C(N)=O)c1)N(CCCO)CC2)NCCOc1ccccc1OCC(F)(F)F
2. COCCCC/C(=N\OCCN)c1ccc(C(F)(F)F)cc1
3. Clc1ccc(C(c2ccc(Cl)cc2)[n+]2ccn(CC(OCc3ccc(Cl)cc3Cl)c3ccc(Cl)cc3Cl)c2)cc1 (stereo not drawn)

1. 88.7
2. 28.1
3. 5.22
